target: NPR-B (Mus musculus); construct: Murine NIH3T3 cells express endogenously the CNP signaling receptor, NPR-B; endogenous in cells; host or cells: NIH3T3; experiment: stimulation of cGMP production in NIH3T3 cells; assay type: cell-based, murine; settings: NIH3T3 cells exposed to 10 nM peptide; normalized to cell number and cGMP production in the presence of 1 uM wtCNP22
Sequence (Q6VVW5 17-1047): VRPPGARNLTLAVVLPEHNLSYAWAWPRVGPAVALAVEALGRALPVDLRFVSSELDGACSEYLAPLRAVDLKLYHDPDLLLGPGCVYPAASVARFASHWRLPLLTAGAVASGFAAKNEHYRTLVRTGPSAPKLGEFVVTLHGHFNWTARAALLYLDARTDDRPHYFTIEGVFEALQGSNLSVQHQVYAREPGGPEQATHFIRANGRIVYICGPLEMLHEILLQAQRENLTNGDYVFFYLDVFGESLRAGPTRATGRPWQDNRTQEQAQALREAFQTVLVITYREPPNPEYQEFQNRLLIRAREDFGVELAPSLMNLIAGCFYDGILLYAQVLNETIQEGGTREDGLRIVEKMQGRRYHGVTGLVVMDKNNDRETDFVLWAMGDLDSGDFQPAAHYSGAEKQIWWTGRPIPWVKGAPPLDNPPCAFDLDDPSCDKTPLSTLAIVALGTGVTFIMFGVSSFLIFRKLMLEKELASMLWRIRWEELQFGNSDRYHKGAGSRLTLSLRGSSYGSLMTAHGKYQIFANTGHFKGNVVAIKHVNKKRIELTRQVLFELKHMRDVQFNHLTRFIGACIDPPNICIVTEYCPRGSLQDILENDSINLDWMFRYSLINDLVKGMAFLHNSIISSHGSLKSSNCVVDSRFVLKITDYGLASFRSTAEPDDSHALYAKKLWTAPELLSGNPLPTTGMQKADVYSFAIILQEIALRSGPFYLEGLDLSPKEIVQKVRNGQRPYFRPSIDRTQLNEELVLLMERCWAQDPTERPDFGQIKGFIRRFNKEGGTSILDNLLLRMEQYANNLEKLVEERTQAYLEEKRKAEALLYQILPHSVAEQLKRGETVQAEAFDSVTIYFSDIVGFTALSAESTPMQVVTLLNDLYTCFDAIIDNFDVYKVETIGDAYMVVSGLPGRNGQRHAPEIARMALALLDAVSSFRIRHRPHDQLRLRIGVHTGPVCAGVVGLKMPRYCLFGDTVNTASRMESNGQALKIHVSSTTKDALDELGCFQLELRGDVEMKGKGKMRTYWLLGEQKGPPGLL
Assign cGMP Response rel. to 1 uM CNP22, 10 nM to each entry below.
Could you respond with only the numeric value?

# cGMP Response rel. to 1 uM CNP22, 10 nM of CC[C@@H](C)[C@H]1NC(=O)[C@@H](CCCNC(=N)N)NC(=O)[C@@H](CC(=O)O)NC(=O)[C@@H](CC(C)C)NC(=O)[C@@H](CCCCN)NC(=O)[C@@H](CC(C)C)NC(=O)CNC(=O)[C@@H](Cc2ccccc2)NC(=O)[C@H](NC(=O)CNC(=O)[C@@H](CCCCN)NC(=O)[C@@H](CO)NC(=O)[C@@H](CC(C)C)NC(=O)CN)CSSC[C@H](C(=O)O)NC(=O)CNC(=O)[C@@H](CC(C)C)NC(=O)CNC(=O)[C@@H](CO)NC(=O)[C@@H](CCSC)NC(=O)[C@@H](CO)NC(=O)CNC1=O [Analog N, D-CNP22 (all D-amino acids)] = 2

# cGMP Response rel. to 1 uM CNP22, 10 nM of CC[C@H](C)[C@@H]1NC(=O)[C@H](CCCNC(=N)N)NC(=O)[C@H](CC(=O)O)NC(=O)[C@H](CC(C)C)NC(=O)[C@H](CCCCN)NC(=O)[C@H](CC(C)C)NC(=O)CNC(=O)[C@H](Cc2cccc(Cl)c2)NC(=O)[C@@H](NC(=O)CNC(=O)[C@H](CCCCN)NC(=O)[C@H](CO)NC(=O)[C@H](CC(C)C)NC(=O)CN)CSSC[C@@H](C(=O)O)NC(=O)CNC(=O)[C@H](CC(C)C)NC(=O)CNC(=O)[C@H](CO)NC(=O)[C@H](CCSC)NC(=O)[C@H](CO)NC(=O)CNC1=O [Analog G] = 17

# cGMP Response rel. to 1 uM CNP22, 10 nM of CC[C@H](C)[C@@H]1NC(=O)[C@H](CCCNC(=N)N)NC(=O)[C@H](CC(=O)O)NC(=O)[C@H](CC(C)C)N(C)C(=O)[C@H](CCCCN)NC(=O)[C@H](CC(C)C)N(C)C(=O)CNC(=O)[C@H](Cc2ccccc2)NC(=O)[C@@H](NC(=O)CNC(=O)[C@H](CCCCN)NC(=O)[C@H](CO)NC(=O)[C@H](CC(C)C)NC(=O)CN)CSSC[C@@H](C(=O)O)NC(=O)CNC(=O)[C@H](CC(C)C)NC(=O)CNC(=O)[C@H](CO)NC(=O)[C@H](CCSC)NC(=O)[C@H](CO)NC(=O)CNC1=O [Analog M, CNP22, N-methyl-L9, N-methyl-L11] = 1

# cGMP Response rel. to 1 uM CNP22, 10 nM of CC[C@H](C)[C@@H]1NC(=O)[C@H](CCCNC(=N)N)NC(=O)[C@H](CC(=O)O)NC(=O)[C@H](CC(C)C)N(C)C(=O)[C@H](CCCCN)NC(=O)[C@H](CC(C)C)N(C)C(=O)CNC(=O)[C@H](Cc2ccccc2)NC(=O)[C@@H](NC(=O)CNC(=O)[C@H](CCCCN)NC(=O)[C@H](CO)NC(=O)[C@H](CC(C)C)NC(=O)CN)CSSC[C@@H](C(=O)O)NC(=O)CNC(=O)[C@H](CC(C)C)N(C)C(=O)CNC(=O)[C@H](CO)NC(=O)[C@H](CCSC)NC(=O)[C@H](CO)NC(=O)CNC1=O [Analog L] = 18

# cGMP Response rel. to 1 uM CNP22, 10 nM of CC[C@H](C)[C@@H]1NC(=O)[C@H](CCCNC(=N)N)NC(=O)[C@H](CC(=O)O)NC(=O)[C@H](CC(C)C)NC(=O)[C@H](CCCCN)NC(=O)[C@H](CC(C)C)N(C)C(=O)CNC(=O)[C@H](Cc2ccccc2)NC(=O)[C@@H](NC(=O)CNC(=O)[C@H](CCCCN)NC(=O)[C@H](CO)NC(=O)[C@H](CC(C)C)NC(=O)CN)CSSC[C@@H](C(=O)O)NC(=O)CNC(=O)[C@H](CC(C)C)N(C)C(=O)CNC(=O)[C@H](CO)NC(=O)[C@H](CCSC)NC(=O)[C@H](CO)NC(=O)CNC1=O [Analog K, CNP22, N-methyl-L9, N-methyl-L20] = 1

This collection of values is drawn from patent USRE48267E1.
